biological target: human insulin receptor (HIR) (human, UniProt P06213 28-1382, limits assumed); experiment: HIR Kd, Table 14; competition with 125I-insulin on solubilised HIR (method of Example 3, not restated for this table)
pKd: −log10 of the molar value.
I would appreciate it if you labelled entries 1 (yes) when pKd is 6 or higher, otherwise 0 (no).

Item RB517 (peptide) peptide: DYKDDDDKHLCVLEELFWGASLFGYCSGGGSGGSHLCVLEELFWGASLFGYCSGAAAGAPVPYPDPLEPRAA with pKd of 6 or above?
0 (no)

Item MQNDDGSLDESFYDWFERQLGHHHHHHPG (F1 monomer with a His tag) [RB596] with pKd of 6 or above?
1 (yes)

Item RB538 (Recombinant F1-F6 (Site 1-Site 2) dimer peptide with tags at both ends) peptide: MADYKDDDDKGSLDESFYDWFERQLGKKGGSGGSGGSGGSWLDQEWAWVQCEVYGRGCPSAAAGAPVPYPDPLEPRPG with pKd of 6 or above?
1 (yes)

Item RB435 (other, not shown: large carriers, MBP fusion, uncleaved) NNNNLGIEGRISEFIEGRAQPAMAFHENFYDWFVRQVSGGSFHENFYDWFVRQVSGGSFHENFYDWFVRQVSAAAGAPVPYPDPLEPRAA with pKd of 6 or above?
0 (no)

Item RB436 (other, not shown: large carriers, MBP fusion, uncleaved) NNNNLGIEGRISEFIEGRAQPAMAFHENFYDWFVRQVSGGSGGSGGSFHENFYDWFVRQVSAAAGAPVPYPDPLEPRAA with pKd of 6 or above?
1 (yes)
